Each entry below lists one item and its recorded Cynomolgus Primary Hepatocytes-% Editing value.
- System: PCSK9 gene
- Method Summary: PCSK9 gRNA/SpCas9 editing in primary cynomolgus hepatocytes (Tables 2, 22)
- Assay type: cell-based, cynomolgus monkey
- Condition: SpCas9 mRNA MS002, 625 ng/test article/mL, rep2
In the oligonucleotide strings, read from the 5' end, every base follows the letter of its sugar. An asterisk marks phosphorothioate; unmarked linkages are phosphodiester. Other units and linkages are bracketed, terminal groups are in braces. A string of capitals states the bases alone. m = 2'-O-methyl; r = 2'-OH (RNA)
Parameter Measured: Cynomolgus Primary Hepatocytes-% Editing (%)

INSERT INTO assay_data (molecule, unit_name, observed_result) VALUES
  ('GA396 (nucleic acid) guide: mU*mC*mA*rGrCrUrCrCrArGrGrCrGrGrUrCrCrUrGrGmGrUrUrUrUrArGmAmGmCmUmArGmAmAmAmUmAmGmCmAmArGrUrU*mArAmArAmUrAmAmGmGmCmUmArGrUmCmCrGrUrUrAmUmCrArAmCmUmUrGmAmAmAmAmAmGmUmGrGmCmAmCmCmGmAmGmUmCmGmGmUmGmCmU*mU*mU*mUmUmUmU', '%', 41.53),
  ('GA397 (nucleic acid) guide: mU*mC*mA*rGrCrUrCrCrArGrGrCrGrGrUrCrCrUrGrGmGrUrUrUrUrArGmAmGmCmUmArGmAmAmAmUmAmGmCmAmArGrUrUmArAmArAmUrAmAmGmGmCmUmArGrUmCmCrGrUrU*rAmUmCrArAmCmUmUrGmAmAmAmAmAmGmUmGrGmCmAmCmCmGmAmGmUmCmGmGmUmGmCmU*mU*mU*mUmUmUmU', '%', 46.28),
  ('GA401 (nucleic acid) guide: mU*mC*mA*rGrCrUrCrCrArGrGrCrGrGrUrCrCrUrGrGmGrUrUrUrUrArGmAmGmCmUmAmGmAmAmAmUmAmGmCmAmArGrUrUmArAmArAmUrAmAmGmGmCmUmArGrUmCmCrGrUrUrAmUmCrArAmCmUmUmGmAmAmAmAmAmGmUmGrGmCmAmCmCmGmAmGmUmCmGmGmUmGmCmU*mU*mU*mUmUmUmU', '%', 38.77),
  ('GA399 (nucleic acid) guide: mU*mC*mA*rGrCrUrCrCrArGrGrCrGrGrUrCrCrUrGrGmGrUrUrUrUrArGmAmGmCmUmAmGmAmAmAmUmAmGmCmAmArGrUrUmArAmArAmUrAmAmGmGmCmUmArGmUrCmCrGrUrUmAmUmCrArAmCmUmUmGmAmAmAmAmAmGmUmGmGmCmAmCmCmGmAmGmUmCmGmGmUmGmCmU*mU*mU*mUmUmUmU', '%', 41.8),
  ('GA405: gRNA targeting PCSK9 with modifications to the tracr, for SpCas9 (nucleic acid) guide: mU*mC*mA*rGrCrUrCrCrArGrGrCrGrGrUrCrCrUrGrGmGrUrUrUrUrArGmAmGmCmUmAmGmAmAmAmUmAmGmCmAmArGrUrUmArAmArAmUrAmAmGmGmCmUmArGrUrCmCrGrUrUrAmUmCrArAmCmUmUmGmAmAmAmAmAmGmUmGmGmCmAmCmCmGmAmGmUmCmGmGmUmGmCmU*mU*mU*mUmUrUmU', '%', 26.36),
  ('GA404 (nucleic acid) guide: mU*mC*mA*rGrCrUrCrCrArGrGrCrGrGrUrCrCrUrGrGmGrUrUrUrUrArGmAmGmCmUmArGmAmAmAmUmAmGmCmAmArGrUrUmArAmArAmUrAmAmGmGmCmUmArGrUmCmCrGrUrU*rAmUmCrArAmCmUmUrGmAmAmAmAmAmGmUmGrGmCmAmCmCmGmAmGmUmCmGmGmUmGmCmU*mU*mU*mUmUrUmU', '%', 30.16);
